# Test system: macular degeneration animal model
# PROTOCOL_SUMMARY: Laser-induced macular degeneration mouse model, FFA and OCT imaging
# Assay type: in vivo
# APPLIED_CONDITIONS: OCT imaging, day 11; compound 0.022 μg/eye, Eylea 20 μg/eye
MEASURED_PARAMETER: Lesion size compared to negative control group (%)

> print(dat)
                                   compound  reading.unit  meas.value
1  CN1Cc2c(cccc2-c2ccccc2-c2ccc(COCN3CCC(F)(F)CC3)o2)C1=O [Compound 37]             %       46.40
2  CN1Cc2c(cccc2-c2ccccc2-c2ccc(CN3CCOCC3)o2)C1=O [Compound 13]             %       57.66
3  CN1Cc2c(cccc2-c2ccccc2-c2ccc(CNCc3cnn(C)c3)o2)C1=O [Compound 18]             %       45.15
4  CNC(=O)C1(Cc2ccc(F)cc2)CCN(Cc2ccc(-c3ccccc3-c3cccc4c3CN(C)C4=O)o2)CC1 [Compound 21]             %       40.79
5  CNC(=O)C1(C)CN(Cc2ccc(-c3ccccc3-c3cccc4c3CN(C)C4=O)o2)CCC1O (centres unmarked) [Compound 25]             %       44.01
6  CNC(=O)C1(Cc2ccc(F)cc2)CCN(Cc2oc(-c3ccccc3-c3cccc4c3CN(C)C4=O)cc2C)CC1 [Compound 39]             %       58.10
7  CNC(=O)CC1C(=O)NCCN1Cc1oc(-c2ccccc2-c2cccc3c2CN(C)C3=O)cc1C (centres unmarked) [Compound 42]             %       52.86
8  CCC1(C(=O)NC)CCCN(Cc2oc(-c3ccccc3-c3cccc4c3CN(C)C4=O)cc2C)C1 (centres unmarked) [Compound 40]             %       54.01

----------
# System: retinal degeneration mouse model
# PROTOCOL_SUMMARY: Electroretinogram (ERG) in blue LED-induced retinal degeneration mouse model
# Assay type: in vivo, BALB/c mice
# APPLIED_CONDITIONS: single intravitreal injection 1 hour after LED exposure; compound 24 nM, Eylea 25 mg/kg
Wavelength enhanced multiple compared to a normal saline-treated group, b-wave values, listed per item
MEASURED_PARAMETER: Wavelength enhanced multiple compared to a normal saline-treated group, b-wave

> print(dat)
                                   compound  meas.value
1  CNC(=O)C1(Cc2ccc(F)cc2)CCN(Cc2oc(-c3ccccc3-c3cccc4c3CN(C)C4=O)cc2C)CC1        1.51
2  CN1Cc2c(cccc2-c2ccccc2-c2ccc(CNCc3cnn(C)c3)o2)C1=O        2.03
3  CNC(=O)C1(Cc2ccc(F)cc2)CCN(Cc2ccc(-c3ccccc3-c3cccc4c3CN(C)C4=O)o2)CC1        2.42
4  CN1Cc2c(cccc2-c2ccccc2-c2ccc(CN3CCOCC3)o2)C1=O        1.36
5  CNC(=O)CC1C(=O)NCCN1Cc1oc(-c2ccccc2-c2cccc3c2CN(C)C3=O)cc1C (centres unmarked)        1.38
6  CN1Cc2c(cccc2-c2ccccc2-c2ccc(COCN3CCC(F)(F)CC3)o2)C1=O        1.31
7  CCC1(C(=O)NC)CCCN(Cc2oc(-c3ccccc3-c3cccc4c3CN(C)C4=O)cc2C)C1 (centres unmarked)        1.43
8  CNC(=O)C1(C)CN(Cc2ccc(-c3ccccc3-c3cccc4c3CN(C)C4=O)o2)CCC1O (centres unmarked)        1.01
